Tested on: α2δ subunit derived from porcine brain tissue
Assay: radioligand binding assay using [3H]gabapentin and the α2δ subunit
Settings: [3H]gabapentin radioligand
readout: α2δ binding affinity (nM)

| compound | α2δ binding affinity, nM |
| --- | --- |
| Cl.NCc1cc(Cl)c(Cl)cc1C(=O)O | 435 |
| CC(N)c1ccccc1C(=O)O.Cl (centres unmarked) | 270 |

a. Cl.NCc1cccc(Cl)c1C(=O)O
b. Cl.NCc1ccc(Cl)cc1C(=O)O
c. Cl.NCc1ccc(Cl)cc1-c1noc(=O)[nH]1
[Q] Endpoint returns the given compounds ordered by ascending α2δ binding affinity. Output the labels ranked as instructed.
[A] b, a, c
(b: 100 nM, a: 383 nM, c: 8000 nM)
